- Target Desc: Aurora B MP (Homo sapiens (Human), UniProt Q96GD4)
- Sequence (Q96GD4 whole entry): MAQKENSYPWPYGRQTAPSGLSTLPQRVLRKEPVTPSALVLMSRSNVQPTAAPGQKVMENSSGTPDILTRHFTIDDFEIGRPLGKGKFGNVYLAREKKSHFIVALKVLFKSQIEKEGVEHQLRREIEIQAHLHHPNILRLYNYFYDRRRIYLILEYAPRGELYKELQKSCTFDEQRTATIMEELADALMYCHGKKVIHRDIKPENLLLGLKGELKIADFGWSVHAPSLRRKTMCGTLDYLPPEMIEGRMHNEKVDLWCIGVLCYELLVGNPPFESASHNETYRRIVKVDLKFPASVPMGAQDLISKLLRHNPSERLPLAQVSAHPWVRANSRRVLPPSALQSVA
Assay Readout: IC50

According to the records, this compound `COc1cc2nccc(Oc3ccc(NC(=O)C4(C(=O)Nc5ccc(F)c(O)c5)CC4)cc3)c2cc1OC` displays IC50 of 50 to 500 nM

====

- Target Desc: c-Met (Homo sapiens (Human), UniProt P08581)
- Sequence (P08581 25-1390): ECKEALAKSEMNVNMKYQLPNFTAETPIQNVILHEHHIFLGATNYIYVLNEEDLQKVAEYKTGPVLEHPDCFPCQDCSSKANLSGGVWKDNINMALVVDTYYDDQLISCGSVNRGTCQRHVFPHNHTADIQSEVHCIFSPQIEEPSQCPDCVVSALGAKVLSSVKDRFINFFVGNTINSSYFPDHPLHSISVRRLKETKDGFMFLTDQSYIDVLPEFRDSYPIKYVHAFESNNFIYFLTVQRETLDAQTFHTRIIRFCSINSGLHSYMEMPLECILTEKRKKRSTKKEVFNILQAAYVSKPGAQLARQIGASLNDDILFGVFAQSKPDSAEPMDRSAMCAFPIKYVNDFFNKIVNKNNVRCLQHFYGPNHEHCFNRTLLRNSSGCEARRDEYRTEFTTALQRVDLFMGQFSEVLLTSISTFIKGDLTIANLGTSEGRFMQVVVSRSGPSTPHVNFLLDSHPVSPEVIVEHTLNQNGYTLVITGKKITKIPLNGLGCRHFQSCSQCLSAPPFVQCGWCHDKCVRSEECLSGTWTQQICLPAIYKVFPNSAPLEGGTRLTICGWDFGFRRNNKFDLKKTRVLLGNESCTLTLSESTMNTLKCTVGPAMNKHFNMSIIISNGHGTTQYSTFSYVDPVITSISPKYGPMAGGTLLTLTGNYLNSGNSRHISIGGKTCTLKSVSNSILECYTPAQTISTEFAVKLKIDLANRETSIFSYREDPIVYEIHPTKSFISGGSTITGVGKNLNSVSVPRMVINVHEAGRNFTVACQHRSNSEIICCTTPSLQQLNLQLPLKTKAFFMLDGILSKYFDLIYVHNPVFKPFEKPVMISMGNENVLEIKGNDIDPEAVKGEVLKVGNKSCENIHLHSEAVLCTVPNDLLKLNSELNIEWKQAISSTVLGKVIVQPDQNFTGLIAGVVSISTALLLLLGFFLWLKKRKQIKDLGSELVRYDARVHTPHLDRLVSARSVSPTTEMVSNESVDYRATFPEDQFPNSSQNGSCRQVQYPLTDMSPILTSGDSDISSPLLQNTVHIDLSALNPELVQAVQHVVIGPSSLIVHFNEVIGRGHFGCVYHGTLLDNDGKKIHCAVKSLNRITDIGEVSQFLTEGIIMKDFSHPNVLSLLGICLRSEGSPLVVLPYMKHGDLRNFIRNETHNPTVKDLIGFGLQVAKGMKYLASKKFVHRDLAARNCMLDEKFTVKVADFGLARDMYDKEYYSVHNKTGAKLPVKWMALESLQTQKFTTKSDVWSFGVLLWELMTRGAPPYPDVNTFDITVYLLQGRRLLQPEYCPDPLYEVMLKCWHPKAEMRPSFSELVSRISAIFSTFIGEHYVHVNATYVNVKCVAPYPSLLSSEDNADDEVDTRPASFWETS
pIC50: −log10 of the molar value.
Assay Readout: pIC50

Form field pIC50 for item COc1cc2nccc(Oc3ccc(NC(=O)C4(C(=O)O)CC4)cc3)c2cc1OC [Compound 7] on c-Met (Homo sapiens (Human), UniProt P08581): < 5.30

====

- Target Desc: KDR (Homo sapiens (Human), UniProt P35968)
- Sequence (P35968 20-1356): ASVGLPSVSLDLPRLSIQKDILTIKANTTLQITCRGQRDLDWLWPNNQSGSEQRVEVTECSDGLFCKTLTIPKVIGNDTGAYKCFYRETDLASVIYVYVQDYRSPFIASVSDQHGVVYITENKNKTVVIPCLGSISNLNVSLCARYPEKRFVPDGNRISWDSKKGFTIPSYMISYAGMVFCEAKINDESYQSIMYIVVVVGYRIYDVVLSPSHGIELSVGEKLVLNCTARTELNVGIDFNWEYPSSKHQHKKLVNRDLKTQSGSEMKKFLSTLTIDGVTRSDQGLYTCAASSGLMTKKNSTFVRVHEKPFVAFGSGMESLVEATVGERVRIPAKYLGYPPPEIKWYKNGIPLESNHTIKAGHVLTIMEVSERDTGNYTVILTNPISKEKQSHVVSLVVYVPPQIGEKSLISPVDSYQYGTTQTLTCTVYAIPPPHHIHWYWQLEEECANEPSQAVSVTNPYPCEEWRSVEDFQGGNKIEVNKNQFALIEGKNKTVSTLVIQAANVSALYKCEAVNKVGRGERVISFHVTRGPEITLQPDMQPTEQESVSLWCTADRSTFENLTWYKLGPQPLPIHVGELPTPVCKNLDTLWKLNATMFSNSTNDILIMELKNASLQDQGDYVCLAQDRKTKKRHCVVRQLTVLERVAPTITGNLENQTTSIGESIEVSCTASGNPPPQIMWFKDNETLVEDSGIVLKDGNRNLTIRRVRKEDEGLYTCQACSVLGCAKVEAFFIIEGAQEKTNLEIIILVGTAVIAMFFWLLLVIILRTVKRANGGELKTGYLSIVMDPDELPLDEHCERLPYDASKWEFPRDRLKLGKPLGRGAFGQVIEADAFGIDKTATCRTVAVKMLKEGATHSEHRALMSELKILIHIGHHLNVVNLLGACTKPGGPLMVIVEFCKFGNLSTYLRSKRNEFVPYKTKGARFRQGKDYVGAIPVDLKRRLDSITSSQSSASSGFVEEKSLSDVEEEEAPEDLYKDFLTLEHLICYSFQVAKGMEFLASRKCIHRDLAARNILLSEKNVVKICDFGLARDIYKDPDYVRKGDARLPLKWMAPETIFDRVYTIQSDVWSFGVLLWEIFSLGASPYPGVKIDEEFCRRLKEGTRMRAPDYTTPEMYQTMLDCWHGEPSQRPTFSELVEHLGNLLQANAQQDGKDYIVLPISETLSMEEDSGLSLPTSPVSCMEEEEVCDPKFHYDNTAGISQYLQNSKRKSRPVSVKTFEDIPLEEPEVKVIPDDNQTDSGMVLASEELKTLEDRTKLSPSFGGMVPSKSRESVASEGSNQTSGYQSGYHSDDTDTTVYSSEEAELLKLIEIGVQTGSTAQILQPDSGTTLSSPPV
pIC50: −log10 of the molar value.
Assay Readout: pIC50

According to the records, this molecule `COc1cc2nccc(Oc3ccc(NC(=O)C4(C(=O)Nc5ccc(F)cc5O)CC4)cc3)c2cc1OC` displays pIC50 of > 7.30

====

- Target Desc: Flt-3 (Homo sapiens (Human), UniProt P36888)
- Sequence (P36888 27-993): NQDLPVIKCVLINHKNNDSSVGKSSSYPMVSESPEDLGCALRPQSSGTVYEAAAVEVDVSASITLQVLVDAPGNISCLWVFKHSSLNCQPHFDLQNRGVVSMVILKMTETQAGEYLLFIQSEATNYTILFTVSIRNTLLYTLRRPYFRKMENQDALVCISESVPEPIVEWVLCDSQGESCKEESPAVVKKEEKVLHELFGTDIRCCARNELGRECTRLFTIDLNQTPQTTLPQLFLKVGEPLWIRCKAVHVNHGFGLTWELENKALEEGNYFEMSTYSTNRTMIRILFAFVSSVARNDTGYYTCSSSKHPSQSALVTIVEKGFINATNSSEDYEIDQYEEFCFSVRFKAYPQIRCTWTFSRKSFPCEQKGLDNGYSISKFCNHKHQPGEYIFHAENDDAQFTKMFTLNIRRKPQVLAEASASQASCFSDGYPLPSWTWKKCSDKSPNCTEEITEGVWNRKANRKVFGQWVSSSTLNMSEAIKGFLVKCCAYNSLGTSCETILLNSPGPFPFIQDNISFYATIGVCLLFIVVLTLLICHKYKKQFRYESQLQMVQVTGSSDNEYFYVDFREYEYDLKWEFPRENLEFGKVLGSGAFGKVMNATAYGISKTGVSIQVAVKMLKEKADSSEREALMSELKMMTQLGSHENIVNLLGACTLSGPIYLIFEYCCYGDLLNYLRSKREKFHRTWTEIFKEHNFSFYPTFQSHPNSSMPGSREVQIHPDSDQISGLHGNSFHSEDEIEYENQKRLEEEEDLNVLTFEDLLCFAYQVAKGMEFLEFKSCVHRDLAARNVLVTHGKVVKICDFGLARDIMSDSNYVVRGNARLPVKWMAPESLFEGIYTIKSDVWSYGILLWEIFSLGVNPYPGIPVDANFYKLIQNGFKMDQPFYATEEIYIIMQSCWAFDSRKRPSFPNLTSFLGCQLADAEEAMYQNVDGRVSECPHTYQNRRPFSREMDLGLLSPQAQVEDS
Assay Readout: IC50

Form field IC50 for item COc1cc2nccc(Oc3ccc(NC(=O)C4(C(=O)Nc5ccc(F)cc5O)CC4)cc3)c2cc1OC [Compound 16] on Flt-3 (Homo sapiens (Human), UniProt P36888): < 0.05 µM
